molecular target: Proteasome subunit beta type-5 (Homo sapiens) (UniProt P28074); experiment: Inhibition of 26S proteasome beta 5 in human HEK293 cell lysate assessed as residual activity at […] after 1 hr
quantityName: Activity (%)
Expressed in %, but write only the number.

Value of measured Activity for the entry CC(C)C[C@H](NC(=O)[C@H](Cc1cc(C(F)(F)F)cc(C(F)(F)F)c1)NC(=O)c1cnccn1)B1OC2C[C@@H]3C[C@@H](C3(C)C)[C@]2(C)O1 (some centres undefined) : 14.3

Value of measured Activity for the entry "CC(C)C[C@H](NC(=O)[C@H](Cc1cc(C(F)(F)F)cc(C(F)(F)F)c1)NC(=O)[C@H](Cc1ccccc1)NC(=O)[C@H](Cc1ccccc1)N=[N+]=[N-])C(=O)[C@@]1(C)CO1" : 66.2

Value of measured Activity for the entry "CC(C)C[C@H](NC(=O)[C@H](Cc1ccccc1)NC(=O)[C@H](Cc1c(F)c(F)c(F)c(F)c1F)NC(=O)[C@H](Cc1ccccc1)N=[N+]=[N-])C(=O)[C@@]1(C)CO1" : 56.2

Value of measured Activity for the entry "CC(C)C[C@H](NC(=O)[C@H](Cc1ccccc1)NC(=O)[C@H](Cc1cc(C(F)(F)F)cc(C(F)(F)F)c1)NC(=O)[C@H](Cc1ccccc1)N=[N+]=[N-])C(=O)[C@@]1(C)CO1" : 70.5

// data source = ChEMBL document CHEMBL1157550
